The origin of these recorded values is the supplement of paper PMC9170038.

Tested on: K4 kissing-loop RNA reporter
Experiment: apparent KD of K4 kissing-loop reporter; higher = weaker reporter binding
Details: Eterna round: R107; input ligand: none
measured-quantity: apparent KD of K4 kissing-loop reporter (nM)

macromolecule-sequence	tested-on	unit-name	reported-value
CUCGAGUGAUGUUCGUUUAUUUAUACAGAUACCAGUGAAUUUUAACACCCUUGGCAGCUGGUUGUAUCUUUGUUUUUUACACAAG [JR_Nu_ExcTheophyA_Sub024]	K4 kissing-loop RNA reporter	nM	211
CCUUGGGCACGCCCACUAGGAAGCUAGUCUAAGGAUAUCGACUGGACGAGAAGGUAGACGGACCCGAGUGAUGUUCGGACAUAGG [theeternabot_sameState_KL_FMN_A_1]	K4 kissing-loop RNA reporter	nM	215
GGUUAAUAGGAGGAUACCAGUACGAAUAAAGUACAUUAAUAGUAGAGUGAUGUUCUAAAGUACCCUUGGCAGCUUAGAGUUAGUU [#19 K4 Theophylline B Exclusion]	K4 kissing-loop RNA reporter	nM	169
AACUCUCAGGCACCCGAGUGAUGUUCGGGCCGAGGACCGGUACGGCCGCCACUCGGGCCUGAGAGAGGUUAUCAAAGAUAGCCAA [Omei KL Tryp A SS A v1]	K4 kissing-loop RNA reporter	nM	114

====

apparent KD of MS2 coat protein reference
Tested on: MS2 coat protein
Experiment: apparent KD of MS2 coat protein; higher = weaker reporter binding
Conditions: Eterna round: R107; input ligand: arginine 13.2 mM

macromolecule-sequence	tested-on	unit-name	apparent KD of MS2 coat protein
AAUAACAUGAGGAUCACCCAUGUAAAAGAUACCAGAUGCAUGAUGAUCCCUUGGCAGCUUAAACGCGAUUGAUUACAAUCGCGAA [Mat - Same State Theophlline A - Mod of Eli - D10]	MS2 coat protein	nM	40.9
AGUGUUGUCUGAAGGAGCGGCCCUUGAUCCUCAUGAGACAUGAGGAUCACCCAUGUCUCGGGCCAGGUAGGUCGCAGGCAUCACA [Omei Arg B SS v1]	MS2 coat protein	nM	22.6
AUGGCGUUGGUGAGGCGGUUUAAUGGCGAUACCAGCGUGGAAACACGCCCUUGGCAGCGCCAAAACAUGAGGAUCACCCAUGUUA [Budejovice]	MS2 coat protein	nM	13.2

====

Tested on: MS2 coat protein
Assay: apparent KD of MS2 coat protein; higher = weaker reporter binding
Conditions: Eterna round: R107; input ligand: theophylline 20 uM
The reader will find reported apparent KD of MS2 coat protein values listed item by item below.

macromolecule-sequence	apparent KD of MS2 coat protein [nM]
UGUGCAUGAGUUGUAAAAGCUCAUGGGCAUCGAGGACCGGUACGGCCGCCACUCGGCUGUACAUGAGGAUCACCCAUGUCAGGGU [#1 Same State - Tryptophan A Attempt #22 (HarryS)]	609
GGGUACAUCGCGGCCGCCACUCAUGUAAAUACAUGAGGAUCACCCAUGUCGAUGGAGACAUCGGAGAGGACCGGGCGAUGUACCG	352
CUUGAUAACUGAAGGAGCGAGAAACCCUACAUGAGGAUCACCCAUGUAUACACGGGAACUUCUCAGGUAGGUCGCAGUAUGUCAA [Teveor]	89.3

====

Tested on: K4 kissing-loop RNA reporter;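 note: bound reporter read as fluorescence of individual clusters on recovered sequencing chips by microscopy, with normalized cluster intensities fitted with a binding model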
Assay: apparent KD of K4 kissing-loop reporter; higher = weaker reporter binding
Conditions: Eterna round: R107; input ligand: theophylline 20 uM
measured-quantity: apparent KD of K4 kissing-loop reporter (nM)

macromolecule-sequence	measured-quantity	reported-value
GGAUAGGAUAGAGGAUAUGGUAUAGGCAAGAAUAACUUGUCAUGUAAAUCCAUGAGGAGUGAUGUUCCAGAAGGCUGUCCUAUCG [MatMod 9 - Jieux - Exclusion - FMN B]	apparent KD of K4 kissing-loop reporter	168
GGACAAGUUUCCGAUACCAGCCUUUAUGCUGGACUAGCUUGAUCAGUGGCUAGUGAUGUUGGCCCUUGGCAGCGGGACUCUUCGG [theeternabot_exclusion_KL_Theo_B_10]	apparent KD of K4 kissing-loop reporter	238
UGACUGGACUGAAGGAGCGAGCGAGACAAAGUCUCGAAAUCCUAGUGAUGUUAGGAAAUAACUCAGGUAGGUCGCAGUCUAGUCU [ArgBS 9 #SwitchBubble #StaticStem]	apparent KD of K4 kissing-loop reporter	170
AAUGUACAAGUGAUGUUUGUACUUUCCGAAGGAGCGUCUAAUAAGACAGGUAGGUCGCGGAUUCUCUAAAUUAUCAGGUCAUUAA [JR_ExcArginiA_Sub018]	apparent KD of K4 kissing-loop reporter	85.6

====

Test system: MS2 coat protein
Test: apparent KD of MS2 coat protein; designed switch direction (-1 OFF switch, 1 ON switch): -1; higher = weaker reporter binding
Conditions: input ligand: microRNA oligo, concentration not stated
Classify by measured apparent KD of MS2 coat protein: T if it is equal to or exceeds 30 nM, F if it is smaller.

macromolecule-sequence	label-value
GGGCUAGAAGGAGGAUAUUGAAGAUCCUCACGACAUGAGGAUCACCCAUGUGGUUUAGCAAGGGCCAAGAAGGCCUAUAGCCCA [Zasoan] (Eterna round: R96, puzzle: Exclusion NG 2)	T
GCACGGAGUGCAGGAUAUCUGUGCGAUUAGCUCAGAGAAGGGCACAUGAGGAUCACCCAUGUGUAUAAAACACAAAAUCCGUGC [Eli exng1 - 066] (Eterna round: R96, puzzle: Exclusion NG 1)	F
AACCCUGAUGACAAAUUACAUGAGGAUCACCCAUGUGCCUCACAGGAUAUCCCAGCACGUCGCUAGGAGAAGGGUGACGCGCCA [Tienen] (Eterna round: R96, puzzle: Exclusion NG 3)	F
GGUACUCAAAGAGUACCAAUACGAACAUGAGGAUCACCCAUGUAGGAUAUGCUACUCAAAGAGUAGCAGAAGGAUAUGAUCGAU [Far Half Aptamer v14] (Eterna round: R96, puzzle: Exclusion NG 3)	F
UGUCAGAUGGUAGGAUAUCCAUAUCGAGUGUCCCUUUCCUAACAUGAGGAUCACCCAUGUCGGUGGGAGAAGGGCCGUAUGGUG [salish99_ExNG02_R04_034] (Eterna round: R96, puzzle: Exclusion NG 2)	F
UUAUUAAUUAAUAUUAUAAGAUCACAUGAGGAUCACCCAUGUCAGGAUAUCAGCUCGUGUAGAGCUGAGAAGGGACAAAUAAUA [ExNG3/15-B3] (Eterna round: R96, puzzle: Exclusion NG 3)	T
GGUCGGCGAGGAUAUACAUGAGGAUCACCCAUGUGAUAGAUUGCACGCGUACGUGUAUGUAGAAGGCGCUGACG [JL-ex3-3.30 salish99 mod] (Eterna round: R96, puzzle: Exclusion 3)	F
